// data source = paper PMC3777193

study target: MDM2–p53 (Homo sapiens, UniProt Q00987)
Sequence (Q00987 whole entry): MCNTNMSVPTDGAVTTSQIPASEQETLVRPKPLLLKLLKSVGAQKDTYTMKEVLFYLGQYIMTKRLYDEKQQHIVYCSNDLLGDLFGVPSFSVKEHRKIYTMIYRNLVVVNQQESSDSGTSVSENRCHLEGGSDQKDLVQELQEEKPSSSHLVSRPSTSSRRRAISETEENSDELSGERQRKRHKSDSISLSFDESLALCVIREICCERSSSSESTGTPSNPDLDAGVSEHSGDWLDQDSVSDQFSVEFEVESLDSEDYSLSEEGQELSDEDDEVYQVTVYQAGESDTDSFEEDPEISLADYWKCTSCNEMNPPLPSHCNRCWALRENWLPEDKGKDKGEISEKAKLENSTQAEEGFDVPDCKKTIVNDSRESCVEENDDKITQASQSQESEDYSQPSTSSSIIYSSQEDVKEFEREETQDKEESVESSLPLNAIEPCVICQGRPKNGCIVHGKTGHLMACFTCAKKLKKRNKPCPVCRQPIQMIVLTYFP
assay comment: MDM2–p53 ELISA protein–protein binding assay
condition summary: read-out: MDM2-p53 IC50
measured parameter: IC50
Just the number plus its unit, please.

Asked: Give me measured IC50, please, for this compound: Cc1ccc(N2C(=O)/C(=C\c3cc(-c4ccccc4)n(-c4ccc(Cl)cc4)c3-c3ccccc3)C(=O)N(c3ccccc3)C2=S)cc1C [Compound 4f]
Given back: 260 nM

###

study target: MDMX–p53 (Homo sapiens, UniProt O15151)
Construct: host or cells: in vitro coupled T7 transcription and rabbit reticulocyte lysate translation
Sequence (O15151 1-490): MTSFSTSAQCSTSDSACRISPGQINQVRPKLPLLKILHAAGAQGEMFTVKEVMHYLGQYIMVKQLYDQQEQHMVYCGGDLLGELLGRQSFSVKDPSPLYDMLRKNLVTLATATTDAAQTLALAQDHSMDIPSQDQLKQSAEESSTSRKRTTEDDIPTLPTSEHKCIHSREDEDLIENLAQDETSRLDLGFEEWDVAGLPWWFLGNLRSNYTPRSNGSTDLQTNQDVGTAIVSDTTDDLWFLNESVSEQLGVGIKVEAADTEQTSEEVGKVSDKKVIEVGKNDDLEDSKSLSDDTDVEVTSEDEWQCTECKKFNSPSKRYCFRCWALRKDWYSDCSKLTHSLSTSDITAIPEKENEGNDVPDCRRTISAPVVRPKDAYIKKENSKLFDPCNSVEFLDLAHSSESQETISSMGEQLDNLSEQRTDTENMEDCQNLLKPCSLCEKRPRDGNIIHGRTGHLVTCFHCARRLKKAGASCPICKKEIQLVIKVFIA
assay comment: MDMX–p53 ELISA binding assay
condition summary: read-out: MDMX IC50
Field: label. Allowed values: Satisfied (IC50 < 7 µM) or Not satisfied (IC50 >= 7 µM).

Worked examples follow.
>>> classification("CC(C)(C)c1cc(C=C2C(=O)NC(=S)NC2=O)c(-c2ccccc2)n1-c1ccc(Br)cc1 [Compound 11b]")
"Not satisfied"
>>> classification("O=C1NC(=S)NC(=O)C1=Cc1cc(-c2ccccc2)n(-c2ccc([N+](=O)[O-])cc2)c1-c1ccccc1 [Compound 4t]")
"Satisfied"

Asked: For this molecule, is IC50 lower than 7 µM? O=C1NC(=S)NC(=O)C1=Cc1cc(-c2ccccc2)n(-c2ccc(Cl)cc2)c1-c1ccccc1 [Compound 4c]
Given back: Satisfied

Asked: For this molecule, is IC50 lower than 7 µM? CC(C)(C)c1cc(C=C2C(=O)NC(=S)NC2=O)c(-c2ccccc2)n1-c1ccc(Cl)cc1 [Compound 11c]
Given back: Not satisfied

Asked: For this molecule, is IC50 lower than 7 µM? O=C1NC(=S)NC(=O)C1=Cc1cc(C2CC2)n(-c2ccc(Cl)cc2)c1-c1ccccc1 [Compound 11f]
Given back: Not satisfied

Asked: For this molecule, is IC50 lower than 7 µM? O=C1NC(=S)NC(=O)C1=Cc1cc(-c2ccccc2)n(-c2ccc(Br)cc2)c1C1CC1 [Compound 11e]
Given back: Not satisfied

###

List of pIC50 values.
study target: MDMX–p53 (Homo sapiens)
Construct: host or cells: in vitro coupled T7 transcription and rabbit reticulocyte lysate translation
Sequence (O15151 1-490): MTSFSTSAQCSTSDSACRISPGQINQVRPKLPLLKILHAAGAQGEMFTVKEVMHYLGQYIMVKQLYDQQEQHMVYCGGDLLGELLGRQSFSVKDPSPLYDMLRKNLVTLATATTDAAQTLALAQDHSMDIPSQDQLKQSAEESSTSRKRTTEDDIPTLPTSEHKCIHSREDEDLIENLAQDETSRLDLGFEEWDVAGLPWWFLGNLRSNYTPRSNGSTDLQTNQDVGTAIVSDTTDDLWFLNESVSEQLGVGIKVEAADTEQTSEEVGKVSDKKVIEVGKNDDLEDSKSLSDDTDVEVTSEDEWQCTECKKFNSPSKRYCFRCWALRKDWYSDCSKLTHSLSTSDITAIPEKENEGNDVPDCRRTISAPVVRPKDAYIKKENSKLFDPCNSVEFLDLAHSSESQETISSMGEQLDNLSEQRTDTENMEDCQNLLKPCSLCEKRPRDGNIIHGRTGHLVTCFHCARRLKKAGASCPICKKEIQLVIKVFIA
assay comment: MDMX–p53 ELISA binding assay
condition summary: read-out: MDMX IC50
pIC50 field: float, defined as -log10 of concentration (mol/L).

These solved cases illustrate the format of a correct answer.
>>> quantitative_readout("COc1ccc(-n2c(-c3ccccc3)cc(C=C3C(=O)NC(=O)NC3=O)c2-c2ccccc2)cc1")
4.89
>>> quantitative_readout("O=C1NC(=S)NC(=O)C1=Cc1cc(C2CC2)n(-c2ccc(Br)cc2)c1-c1ccccc1 [Compound 11g]")
2.27
>>> quantitative_readout("O=C1NC(=O)C(=Cc2cc(-c3ccccc3)n(-c3ccc([N+](=O)[O-])cc3)c2-c2ccccc2)C(=O)N1")
6.17
>>> quantitative_readout("O=C1NC(=S)NC(=O)C1=Cc1cc(-c2ccccc2)n(-c2ccc(Cl)cc2)c1C1CC1 [Compound 11d]")
2.46

Asked: Give me measured pIC50, please, for this compound: N#Cc1ccc(-n2c(-c3ccccc3)cc(C=C3C(=O)NC(=S)NC3=O)c2-c2ccccc2)cc1
Given back: 6.05
